tested on: Thoracic aorta; test: Vasodilation activity against KCl-induced Sprague-Dawley rat thoracic aorta vessels contraction at 40 uM; type: functional
// values below are reported Activity
State just the number; it will be interpreted in %.

Problem: Requested field: Activity. Item: C=C[C@]1(C)CC[C@@H](C(=C)COC(=O)CCCCCCC(=O)Oc2ccc(-c3cc(=S)ss3)cc2)C[C@H]1C(=C)C
Solution: 14.68

Problem: Requested field: Activity. Item: C=C[C@]1(C)CC[C@@H](C(=C)COC(=O)CCCCC2CCSS2)C[C@H]1C(=C)C (stereo partly specified)
Solution: 11.51

Problem: Requested read-out: Activity. Entry: C=C[C@]1(C)CC[C@@H](C(=C)COC(=O)C(NC(=O)CCC(=O)OCCOc2ccc(-c3cc(=S)ss3)cc2)C(C)CC)C[C@H]1C(=C)C (stereo partly specified)
Solution: 14.29

Problem: Returns the measured Activity for the input compound. Input: C=C[C@]1(C)CC[C@@H](C(=C)COC(=O)c2c(F)cccc2C(=O)OCCOc2ccc(-c3cc(=S)ss3)cc2)C[C@H]1C(=C)C
Solution: 61.41

Problem: What value of measured Activity is listed for C=C[C@]1(C)CC[C@@H](C(=C)COC(=O)/C=C\C(=O)OCCOc2ccc(-c3cc(=S)ss3)cc2)C[C@H]1C(=C)C ?
Solution: 10.78

Problem: Suppose we examine the compound C=C[C@]1(C)CC[C@@H](C(=C)CO)C[C@H]1C(=C)C ; what Activity value has been reported?
Solution: 53.06

Problem: // lookup Activity for C=C[C@]1(C)CC[C@@H](C(=C)COCCCCCCCCOc2ccc(C(N)=S)cc2)C[C@H]1C(=C)C
Solution: 19.64

Problem: Query: Activity; subject: C=C[C@]1(C)CC[C@@H](C(=C)COC(=O)CCCCCC(=O)Oc2ccc(C(N)=S)cc2)C[C@H]1C(=C)C
Solution: 6.38

Problem: Bench note: what Activity did Oc1ccc(-c2cc(=S)ss2)cc1 show?
Solution: 75.01

Problem: Quick one: Activity of C=C[C@]1(C)CC[C@@H](C(=C)COC(=O)C(NC(=O)CCCCC2CCSS2)C(C)CC)C[C@H]1C(=C)C (stereo partly specified) ?
Solution: 14.47

Problem: Fill in: Activity of C=C[C@]1(C)CC[C@@H](C(=C)COC(=O)CCC(=O)OCCOc2ccc(-c3nc(=O)ss3)cc2)C[C@H]1C(=C)C is ___
Solution: 34.29

Problem: Which measured Activity value corresponds to C=C[C@]1(C)CC[C@@H](C(=C)COCCCCOc2ccc(C(N)=S)cc2)C[C@H]1C(=C)C ?
Solution: 30.23

Problem: Request the reported Activity associated with C=C[C@]1(C)CC[C@@H](C(=C)C)C[C@H]1C(=C)COC(=O)C(NC(=O)CCC(=O)OCCOc1ccc(-c2cc(=S)ss2)cc1)C(C)CC (stereo partly specified)
Solution: 13

Problem: Request the reported Activity associated with C=C[C@]1(C)CC[C@@H](C(=C)COC(=O)c2ccccc2C(=O)OCCOc2ccc(-c3cc(=S)ss3)cc2)C[C@H]1C(=C)C
Solution: 28.25

Problem: Give the measured Activity of C=C[C@]1(C)CC[C@@H](C(=C)COCCCCCCOc2ccc(C(N)=S)cc2)C[C@H]1C(=C)C .
Solution: 12.18

Problem: // Activity lookup, key: C=C[C@]1(C)CC[C@@H](C(=C)COC(=O)CCCCCC(=O)Oc2ccc(-c3nc(=O)ss3)cc2)C[C@H]1C(=C)C
Solution: 8.22
